# Target Desc: human NAMPT (Homo sapiens, UniProt P43490)
# Sequence (P43490 whole entry): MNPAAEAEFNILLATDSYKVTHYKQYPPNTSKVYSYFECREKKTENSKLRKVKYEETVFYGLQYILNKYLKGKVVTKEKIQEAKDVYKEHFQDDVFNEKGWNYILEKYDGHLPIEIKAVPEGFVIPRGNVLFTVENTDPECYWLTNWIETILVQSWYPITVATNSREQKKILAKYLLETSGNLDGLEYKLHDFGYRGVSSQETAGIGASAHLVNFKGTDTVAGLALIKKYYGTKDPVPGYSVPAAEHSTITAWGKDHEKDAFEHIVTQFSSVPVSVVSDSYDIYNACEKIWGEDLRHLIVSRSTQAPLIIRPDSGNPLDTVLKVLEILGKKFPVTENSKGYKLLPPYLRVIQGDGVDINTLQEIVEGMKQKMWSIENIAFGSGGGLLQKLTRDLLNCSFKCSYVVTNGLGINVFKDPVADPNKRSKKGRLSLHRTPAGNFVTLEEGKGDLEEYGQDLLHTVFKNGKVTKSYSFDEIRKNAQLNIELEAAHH
# Experiment Notes: Human recombinant enzyme assay (NMN fluorescence biochemical assay, activation of NAMPT)
# Run Parameters: Table A; human recombinant NAMPT, NMN formation, 60 min
Recorded Endpoint: AC1.4 Human (µM)

// below: answered compounds
Compound	Assay Result
Cc1ncccc1C(=O)NC1CC2(CC(NC(=O)NCc3ccc(Cl)cc3)C2)C1 (stereo not drawn) [Compound 203]	8.2
CN1CCC(C(=O)N2CCC(CCCCNC(=O)NCc3ccc(Cl)cc3)CC2)CC1=O (stereo not drawn) [Compound 302]	2.0
O=C(NCCCCC1CCN(C(=O)Cc2cccnc2)CC1)NCc1ccc(Cl)cc1 [Compound 294]	1.0
CN1CC(C(=O)N2CCC(CCCCNC(=O)NCc3ccc(Cl)cc3)CC2)CC1=O (stereo not drawn) [Compound 304]	1.7
COc1ccc(CNC(=O)NC2CC3(C2)CC(C(=O)NCc2ccccn2)C3)cc1 (stereo not drawn) [Compound 56]	9.0
CC(C)(C)OC(=O)N1CC[C@]2(C1)C[C@H](NC(=O)NCc1ccc(Cl)cc1)C2 [Compound 152]	7.9

1. CC1CCN(CC2CC3(C2)CC(NC(=O)NCc2ccc(Cl)cc2)C3)C1=O (stereo not drawn) [Compound 244]
2. COc1ccc(CNC(=O)NC2CC3(C2)CN(C(=O)c2ccc(=O)n(C)c2)C3)cc1 [Compound 144]
3. COc1ccc(CNC(=O)NC2CC3(C2)CC(C(=O)N2Cc4ccccc4C2)C3)cc1 (stereo not drawn) [Compound 73]
4. Cc1ncccc1CC1CC2(C1)CC(NC(=O)NCc1ccc(Cl)cc1)C2 (stereo not drawn) [Compound 346]
Lookup: Please give the order of these compounds when sorted by AC1.4 Human, largest value leading. Answer by listing the labels in the requested order.
Found: 4, 2, 1, 3

P. COc1ccc(CNC(=O)NC2CC3(C2)CN(C(=O)OC(C)(C)C)C3)cc1 [Compound 37]
Q. O=C(NCCCCC1CCN(C(=O)C2CCOCC2)CC1)NCc1ccc(Cl)cc1 [Compound 300]
Lookup: Given the two records P and Q , choose the one whose AC1.4 Human value is lower. Please identify the chosen entry by its label.
Found: Q
(Q: 1.4 µM, P: 4.2 µM)

I. CC(C)(O)CN1CCN(C(=O)C2CC3(CC(NC(=O)NCc4ccc(F)cc4)C3)C2)CC1 (stereo not drawn) [Compound 109]
II. Cc1ccc(C(=O)N2CC3(CC(NC(=O)NCc4ccc(C(N)=O)cc4)C3)C2)cn1 [Compound 225]
III. COc1ccc(CNC(=O)NC2CC3(C2)CN(C(=O)c2cccc(N4CCOCC4)c2)C3)cc1 [Compound 191]
Lookup: Hey, can you sort those compounds up there by AC1.4 Human, smallest first? Provide the labels, sequenced as the question asks.
Found: III, II, I
(III: 1.3 µM, II: 2.0 µM, I: 3.5 µM)
